procedure text: Single ascending dose
Format: in vivo, human
condition parameters: human, plasma, oral, 10 mg
readout name: AUC(0-t) (ng·h/mL)
Provide the reading as a plain figure in ng·h/mL.

For the molecule shown here, C=C(C)[C@@H]1CC[C@]2(NCCN3CCS(=O)(=O)CC3)CC[C@]3(C)[C@H](CC[C@@H]4[C@@]5(C)CC=C(C6=CC[C@@](COc7ncccc7C#N)(C(=O)O)CC6)C(C)(C)[C@@H]5CC[C@]43C)[C@@H]12 [GSK'937] , give the reported AUC(0-t).
2490

---

procedure text: Multiple ascending dose
Assay type: in vivo, human
condition parameters: human, plasma, oral, 25 mg
readout name: AUC(0-t) (ng·h/mL)
Note: unit ng·h/mL is implicit; provide only the numeric part.

Dear colleague, I am looking for the recorded AUC(0-t) of the following compound: C=C(C)[C@@H]1CC[C@]2(NCCN3CCS(=O)(=O)CC3)CC[C@]3(C)[C@H](CC[C@@H]4[C@@]5(C)CC=C(C6=CC[C@@](COc7ncccc7C#N)(C(=O)O)CC6)C(C)(C)[C@@H]5CC[C@]43C)[C@@H]12 [GSK'937]
1890
